Examples of compounds with documented Foam height at time t = 5 follow.
TEST SUMMARY: Foam height test, Standard Test Method for Foaming Properties of Surface-Active Agents (ASTM 1173-07)
Assay type: physicochemical
EXPERIMENTAL PARAMETERS: 10 g/L (1.0 weight %), t = 5 min, 49° C.
Procedure: The Standard Test Method for Foaming Properties of Surface-Active Agents (ASTM 1173-07) for 0.1 wt % and 1.0 wt % was used to determine the foaming properties of the amphoteric compounds of the formula 1 described herein. […] Solutions of each surface-active agent to be measured were prepared in borosilicate glass jars a day ahead of time, using ambient temperature ingredients, and were slowly rolled overnight to homogenize. […] The foam height was recorded each minute for five minutes. […]
The reply should consist of the numeric value with the unit placed after it.

Examples with answers:
• CCCCCCCCCCCCNC(=O)CCC[N+](C)(C)CC(O)CS(=O)(=O)[O-] (stereo not drawn) [Example 12] = 175 mm
• CCCCCCCCCCCCNC(=O)CCCC[N+](C)(C)CC(O)CS(=O)(=O)[O-] (stereo not drawn) [Example 21] = 169 mm
• CCCCCCCCCCCCNC(=O)CCC[N+](C)(C)CCCS(=O)(=O)[O-] [Example 14] = 116 mm
• CCCCCCCCCCCCOC(=O)CCCC[N+](C)(C)CC(O)CS(=O)(=O)[O-] (stereo not drawn) [Example 9] = 180 mm
• CCCCCCCCCCCCOC(=O)CCC[N+](C)(C)CC(O)CS(=O)(=O)[O-] (stereo not drawn) [Example 4] = 154 mm

Recorded Foam height at time t = 5 for CCCCCCCCCCCCOC(=O)CCC[N+](C)(C)CCCS(=O)(=O)[O-] [Example 5] , please?
152 mm
